- Tested on: tamagayatsuri (small-flowered umbrellaplant, Cyperus difformis)
- assay_explanation: Experiment 7 flooded soil treatment: tamagayatsuri
- Assay type: in vivo
- Parameters: key: 5: completely killed; 4: seriously injured; 3: considerably injured; 2: somewhat injured; 1: slightly injured; 0: not injured (normally grown)
- conditions_used: 12.5 g/10a, evaluated 4 weeks after treatment
reported_metric: Herbicidal Effect tamagayatsuri
Hey, just send me the number, nothing else.

Please review the entries below; each comes with its answer.
C#CC(C)Oc1cc(N(C(=O)C2=C(C(=O)OC)CCCC2)C(=O)c2ccc(Cl)s2)c(F)cc1Cl (centres unmarked): 4
C#CC(C)Oc1cc(N(C(=O)C2=C(C(=O)OC)CCCC2)C(=O)c2ccc(C)s2)c(F)cc1Cl (centres unmarked): 5
C#CC(C)Oc1cc(N(C(=O)C2=C(C(=O)OC)CCCC2)C(=O)c2sccc2C)c(F)cc1Cl (centres unmarked): 5
C#CC(C)Oc1cc(N(C(=O)C2=C(C(=O)OC)CCCC2)C(=O)c2cccs2)c(F)cc1Cl (racemic): 5

Would you kindly look at the next entry?
May I ask what Herbicidal Effect tamagayatsuri has been recorded for C#CC(C)Oc1cc(N(C(=O)C2=C(C(=O)OCCCC)CCCC2)C(=O)c2ccsc2)c(F)cc1Cl (centres unmarked) ?
5
